Entries annotated with measured microsomal CLint at 0.25 h, 1 µM
# Protocol Summary: in vitro
# Cond: human, microsomes

# Record Smiles, Unit Descriptor, microsomal CLint at 0.25 h, 1 µM
records = [
    ("C[C@@H]1CN(c2sc(C(F)(F)F)nc2-c2nc3ccccc3[nH]2)CCN1C(=O)Cn1cccn1", "µL/min/mg", 44),
    ("C[C@@H]1CN(c2sc(C(F)(F)F)nc2-c2nc3ccccc3[nH]2)CCN1C(=O)Cn1cnc2cccnc21", "µL/min/mg", 89),
    ("Cc1nc(C)n(CC(=O)N2CCN(c3sc(C(F)(F)F)nc3-c3nc4ccc(C5CCOCC5)cc4[nH]3)C[C@H]2C)n1", "µL/min/mg", 18),
]

---

# Protocol Summary: in vivo
# Cond: Balb/c, mouse, po, 10 mg/kg
Entries annotated with measured AUC

# Record Smiles, AUC [µg·h/mL]
data = [
    ("Cc1nc(C)n(CC(=O)N2CCN(c3sc(C(F)(F)F)nc3-c3nc4ccc(C5CCOCC5)cc4[nH]3)C[C@H]2C)n1", 0.545),
    ("C[C@@H]1CN(c2sc(C(F)(F)F)nc2-c2nc3cc(OCCO)ccc3[nH]2)CCN1C(=O)Cn1cnc2cccnc21", 0.519),
    ("Cc1nc(C)n(CC(=O)N2CCN(c3sc(C(F)(F)F)nc3-c3nc4ccc(N5CCOCC5)cc4[nH]3)C[C@H]2C)n1", 4.11),
]

---

Entries annotated with measured fraction unbound
# Protocol Summary: Unbound fraction in mouse plasma by equilibrium based LC-MS/MS analysis
Readout: fraction unbound

# Record Smiles, Reported Result
measured = [
    ("Cc1nn(CC(=O)N2CCN(c3sc(C(F)(F)F)nc3-c3nc4ccccc4[nH]3)C[C@H]2C)cc1CN(C)C", 0.053),
    ("C[C@@H]1CN(c2sc(C(F)(F)F)nc2-c2nc3cc(OCCO)ccc3[nH]2)CCN1C(=O)Cn1cnc2cccnc21", 0.03),
    ("Cc1nc(C)n(CC(=O)N2CCN(c3sc(C(F)(F)F)nc3-c3nc4ccc(-c5noc(C)n5)cc4[nH]3)C[C@H]2C)n1", 0.024),
]
